EXPERIMENTAL TARGET: LNX1_2, Q8TBB1
Sequence (Q8TBB1 371-470): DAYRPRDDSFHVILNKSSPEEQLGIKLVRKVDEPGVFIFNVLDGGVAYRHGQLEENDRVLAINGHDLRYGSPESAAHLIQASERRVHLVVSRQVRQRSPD
TEST METHOD NOTES: holdup assay
Design: key: below the threshold = too weak to quantify, mostly under pKd 3.1 to 4
EXPERIMENTAL PARAMETERS: plain residues with an end cap or a label only (N-terminal biotin on a linker: ttds)

{"BINDER": "DKDPHSETAL [TMIGD1, Q6UXZ0]", "pKd": "below the threshold"}
{"BINDER": "VDFPPKESSL [ACVR2A, P27037]", "pKd": "below the threshold"}
{"BINDER": "RPLPRKVSQL [DOCK4, Q8N1I0]", "pKd": "below the threshold"}
{"BINDER": "SGSRPSATVV [HPV73-E6, Q82005]", "pKd": 4.06}

Reference for the values: paper PMC9482650
